# Test system: MCF-7 cells
# Experimental details: Antiproliferative MTT assay, MCF-7
# Format: cell-based
# Condition notes: Homo sapiens, MCF7, 72 h
Values of GI50 strictly less than 4 µM map to true (1), and values of at least 4 µM map to false (0).

Structure as smiles	Group label
Nc1cccc(OCc2ccc(CCCCc3ccc(C[n+]4ccc(N5CCCC5)cc4)cc3)cc2)c1	true (1)
CN(C)c1cc[n+](Cc2ccc(-c3ccc(COc4cccc(N)c4)cc3)cc2)cc1	false (0)
CN(C)c1cc[n+](Cc2ccc(COc3cccc(N)c3)cc2)cc1	false (0)
Oc1cccc(NCc2ccc(CCc3ccc(C[n+]4ccc(N5CCCC5)cc4)cc3)cc2)c1	true (1)
Nc1cccc(OCc2ccc(C[n+]3ccc(N4CCCC4)cc3)cc2)c1	false (0)
Nc1cccc(OCc2ccc(CCc3ccc(C[n+]4ccc(N5CCCC5)cc4)cc3)cc2)c1	true (1)
Oc1cccc(NCc2ccc(CCCCc3ccc(C[n+]4ccc(N5CCCC5)cc4)cc3)cc2)c1	true (1)
CN(C)c1cc[n+](Cc2ccc(CNc3cccc(O)c3)cc2)cc1	false (0)

Consider the compound Oc1cccc(NCc2ccc(-c3ccc(C[n+]4ccc(N5CCCC5)cc4)cc3)cc2)c1 . Is its GI50 strictly less than 4 µM?
false (0)

Here is the next compound: CN(C)c1cc[n+](Cc2ccc(-c3ccc(CNc4cccc(O)c4)cc3)cc2)cc1
false (0)

Queued: CN(C)c1cc[n+](Cc2ccc(CCc3ccc(COc4cccc(N)c4)cc3)cc2)cc1
false (0)

Next entry: CN(C)c1cc[n+](Cc2ccc(CCCCc3ccc(CNc4cccc(O)c4)cc3)cc2)cc1
true (1)

Similarly, Oc1cccc(NCc2ccc(C[n+]3ccc(N4CCCC4)cc3)cc2)c1 ?
false (0)

Another compound to look at: CN(C)c1cc[n+](Cc2ccc(CCc3ccc(CNc4cccc(O)c4)cc3)cc2)cc1
true (1)

====

This section lists IC50 readings for human ChoKα1 (Homo sapiens, UniProt P35790).
Give bare numbers, in µM.

Structure as smiles	Reported measurement
Oc1cccc(NCc2ccc(C[n+]3ccc(N4CCCC4)cc3)cc2)c1	3.34
CN(C)c1cc[n+](Cc2ccc(CCc3ccc(COc4cccc(N)c4)cc3)cc2)cc1	4.29

Then there is this compound:
Name the recorded IC50 for CN(C)c1cc[n+](Cc2ccc(-c3ccc(COc4cccc(N)c4)cc3)cc2)cc1 .
6.39
